Reported EC50 values are given for each entry in this list.
Biological target: FXR (Homo sapiens (Human), UniProt Q96RI1)
Sequence (Q96RI1 262-486): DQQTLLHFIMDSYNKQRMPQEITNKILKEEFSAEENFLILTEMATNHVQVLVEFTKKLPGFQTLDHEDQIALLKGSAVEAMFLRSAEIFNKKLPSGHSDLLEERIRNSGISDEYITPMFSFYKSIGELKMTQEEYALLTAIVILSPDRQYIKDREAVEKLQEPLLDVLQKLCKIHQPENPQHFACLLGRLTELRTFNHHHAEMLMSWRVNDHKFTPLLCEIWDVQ
Experiment: transient human FXR/Gal4-luciferase reporter assay
Format: cell-based
Conditions: Gal4-hFXR fusion construct, HEK293 reporter cells; response relative to 8 μM GW-4064
Answer as a quantity: numeral, then unit.

Quick one: EC50 of CS(=O)(=O)Nc1ccc(-c2cccc(N(CC34CCC(c5nc(C6CC6)no5)(CC3)CC4)C(=O)C34CC(F)(C3)C4)c2)cc1 ?
0.066 µM

# query: EC50 of entry CCOc1cnc(-c2cccc(N(CC34CCC(c5nc(C6CC6)no5)(CC3)CC4)C(=O)C34CC(F)(C3)C4)c2)nc1
0.302 µM

Need EC50, item CC1(c2nc(C34CCC(CN(C(=O)C56CC(F)(C5)C6)c5cccc(-c6cnc(C(F)(F)F)nc6)c5)(CC3)CC4)no2)CC1
0.221 µM

Entry CC(C)(C)NC(=O)N(CC12CCC(c3noc(C(F)(F)F)n3)(CC1)CC2)c1cccc(-c2ccc(C(C)(C)OC(F)F)cc2)c1 : reported EC50 = ?
0.079 µM

Which value of EC50 has been reported for O=C1Cc2cc(-c3cccc(N(CC45CCC(c6nc(C7CC7)no6)(CC4)CC5)C(=O)C45CC(F)(C4)C5)c3)ccc2N1 in the records?
0.158 µM

Param item = CC(C)(C)c1nc(C23CCC(CN(C(=O)C45CC(F)(C4)C5)c4cccc(-c5ccc(OC(F)F)cc5)c4)(CC2)CC3)no1 ; retrieve measured EC50.
0.061 µM
